Target: Cdc7/Dbf4 (Homo sapiens)
Sequence (O00311 whole entry): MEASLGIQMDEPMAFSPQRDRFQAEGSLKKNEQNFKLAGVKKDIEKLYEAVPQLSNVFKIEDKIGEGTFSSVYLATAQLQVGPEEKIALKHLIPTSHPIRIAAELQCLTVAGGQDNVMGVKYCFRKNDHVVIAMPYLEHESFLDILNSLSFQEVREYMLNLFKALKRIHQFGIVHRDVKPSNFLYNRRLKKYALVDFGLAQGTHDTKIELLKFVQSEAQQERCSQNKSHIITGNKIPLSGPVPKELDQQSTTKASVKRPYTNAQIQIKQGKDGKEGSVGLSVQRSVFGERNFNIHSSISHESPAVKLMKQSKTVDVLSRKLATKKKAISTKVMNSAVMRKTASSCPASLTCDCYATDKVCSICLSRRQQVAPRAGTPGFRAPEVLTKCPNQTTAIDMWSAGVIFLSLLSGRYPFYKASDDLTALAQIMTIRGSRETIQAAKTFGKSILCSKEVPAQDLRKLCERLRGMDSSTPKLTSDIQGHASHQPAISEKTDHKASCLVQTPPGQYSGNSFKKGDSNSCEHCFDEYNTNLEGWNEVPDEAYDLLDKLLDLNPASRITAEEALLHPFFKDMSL
Sequence (Q9UBU7 whole entry partner): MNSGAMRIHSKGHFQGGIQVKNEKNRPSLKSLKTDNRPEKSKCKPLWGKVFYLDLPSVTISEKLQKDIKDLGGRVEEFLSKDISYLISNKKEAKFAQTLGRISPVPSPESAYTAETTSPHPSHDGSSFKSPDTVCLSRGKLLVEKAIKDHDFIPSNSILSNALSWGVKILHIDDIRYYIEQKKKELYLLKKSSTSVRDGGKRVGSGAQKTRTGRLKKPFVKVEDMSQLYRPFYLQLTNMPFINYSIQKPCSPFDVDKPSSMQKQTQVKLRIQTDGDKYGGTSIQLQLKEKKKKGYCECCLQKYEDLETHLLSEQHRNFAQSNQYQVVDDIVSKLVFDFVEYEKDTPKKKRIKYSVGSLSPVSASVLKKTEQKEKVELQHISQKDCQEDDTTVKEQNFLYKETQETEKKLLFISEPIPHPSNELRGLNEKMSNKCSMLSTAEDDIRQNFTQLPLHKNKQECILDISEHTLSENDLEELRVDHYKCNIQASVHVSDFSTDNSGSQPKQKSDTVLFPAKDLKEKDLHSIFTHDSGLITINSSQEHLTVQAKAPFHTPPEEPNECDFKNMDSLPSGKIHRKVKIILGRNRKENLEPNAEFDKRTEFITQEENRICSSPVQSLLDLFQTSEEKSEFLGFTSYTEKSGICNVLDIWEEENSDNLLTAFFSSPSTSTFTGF
Experiment: Cdc7 Biochemical Assay Method 3: Cdc7/Dbf4 Enzyme TR-FRET Assay measuring pS40MCM2
Conditions: 1 μM ATP, read-out: Biochemical Method 3 (pIC50) (converted)
Where a name gives a salt, the structure may show the parent alone.
Measured endpoint: IC50 (nM)

a = O=c1[nH]c(-c2ccnc(F)c2)nc(N2CCNCC(F)(F)C2)c1Cl [Compound 312, hydrochloride]
b = NC(=O)N1CCN(c2nc(-c3ccnc(F)c3)[nH]c(=O)c2Cl)CC1
c = CC1c2nnc(C(F)(F)F)n2C(C)CN1c1nc(-c2ccnc(F)c2)[nH]c(=O)c1Cl (stereo not drawn)
d = O=c1[nH]c(-c2ccnc(F)c2)nc(NCc2ccccc2)c1Cl
e = CC(C)[C@@H]1CN(c2nc(-c3ccnc(F)c3)[nH]c(=O)c2Cl)CCN1
IN: Ranking request: IC50, max to min, items above. Output spec: labels arranged per the requested ranking.
OUT: d, c, e, b, a

I = C[C@@H]1CNCCN1c1nc(-c2ccnc(F)c2)[nH]c(=O)c1Cl
II = NC(=O)[C@@H]1CCN(c2nc(-c3ccnc(F)c3)[nH]c(=O)c2Cl)C1
IN: # return whichever of I and II has the smaller IC50 Write the label of whichever entry you select.
OUT: I

A = C[C@@H]1COC[C@@H](C)N1c1nc(-c2ccnc(F)c2)[nH]c(=O)c1Cl
B = CC1CN(C)CCCN1c1nc(-c2ccnc(F)c2)[nH]c(=O)c1Cl (stereo not drawn)
C = O=c1[nH]c(-c2ccnc(F)c2)nc(N2CCn3ccnc3C2)c1Cl
D = O=c1[nH]c(-c2ccnc(F)c2)nc(N2CCCC2CN2CCOCC2)c1Cl (stereo not drawn)
IN: Sequence the entries by IC50, beginning with the highest number. Provide the labels, sequenced as the question asks.
OUT: D, B, A, C

1 = O=c1[nH]c(-c2ccnc(F)c2)nc(N2CCCC3NCCCC32)c1Cl (stereo not drawn)
2 = O=c1[nH]c(-c2ccnc(F)c2)nc(N2CC[C@H](O)C2)c1Cl
IN: Rank 1 against 2 by their IC50 values and give the higher one. Which one? Tell me its label.
OUT: 2

Taken from patent US10919896B2.
